system: C4-2 cells; test: Internalization efficiency / specific cell uptake in C4-2 cells; assay type: cell-based, human; settings: ^68Ga-labeled compounds 30 nM, 45 min, 37°C, specificity by 2-PMPA 500 μM, mean ± SD (n = 3)
Kindly state Specific cell surface for each of the entries shown.
The figure you give is taken to be in %IA/10^6cells; do not add the unit.

[Q] May I ask what Specific cell surface has been recorded for O=C(O)CCC(NC(=O)NC(CCCCNC(=O)C(Cc1ccc2ccccc2c1)NC(=O)C1CCC(CNC(=O)c2ccc(CN3CCN(CC(=O)O)CCN(CC(=O)O)CCN(CC(=O)O)CC3)cc2)CC1)C(=O)O)C(=O)O (stereo not drawn) [CA028] ?
[A] 94.12

[Q] Recorded Specific cell surface of O=C(O)CCC(NC(=O)NC(CCCCNC(=O)C(Cc1ccc2ccccc2c1)NC(=O)C1CCC(CNC(=S)Nc2ccc(CNC(=O)CCC(C(=O)O)N3CCN(CC(=O)O)CCN(CC(=O)O)CCN(CC(=O)O)CC3)cc2)CC1)C(=O)O)C(=O)O (stereo not drawn) [CA029] , please.
[A] 46.83

[Q] Looking for the measured Specific cell surface of O=C(O)CCC(NC(=O)NC(CCCCNC(=O)c1ccc(CN2CCN(CC(=O)O)CCN(CC(=O)O)CCN(CC(=O)O)CC2)cc1)C(=O)O)C(=O)O (stereo not drawn) [CA027] , can you help?
[A] 2.18
